target: Recombinant human JAK3 catalytic domain (amino acids 781-1124) (Homo sapiens); assay: JAK3 inhibition assay
Sequence (P52333 781-1124): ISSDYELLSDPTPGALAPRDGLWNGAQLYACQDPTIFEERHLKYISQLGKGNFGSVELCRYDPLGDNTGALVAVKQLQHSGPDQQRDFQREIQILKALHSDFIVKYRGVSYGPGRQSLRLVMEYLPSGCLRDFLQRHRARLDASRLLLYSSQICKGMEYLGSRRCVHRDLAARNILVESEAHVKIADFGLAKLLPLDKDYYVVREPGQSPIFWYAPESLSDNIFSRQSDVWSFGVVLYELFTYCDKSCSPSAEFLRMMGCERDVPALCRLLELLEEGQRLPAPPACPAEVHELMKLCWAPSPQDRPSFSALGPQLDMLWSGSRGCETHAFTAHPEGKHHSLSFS
readout-kind: log10 IC50 (log10 of the value in nM)
Give log10 of IC50, with IC50 taken in nM.

// field: log10 IC50; key: Cc1cc(C#N)ncc1Oc1cc(Nc2ccc(C(=O)NC3CCC(O)C3)cn2)c2ncn(C)c2n1 (racemic) [Compound 139] ; value = 2.83

// field: log10 IC50; key: CCNS(=O)(=O)c1ccc(Nc2cc(Oc3cnc(C#N)cc3C)nc3c2ncn3C)cc1 [Compound 53] ; value = 2.69

// field: log10 IC50; key: CN(c1cc(Nc2cc(N)ncn2)c2ncn(C)c2n1)C1CCOCC1(C)C (centres unmarked) [Compound 11] ; value = 2.16

// field: log10 IC50; key: COCCCNC(=O)c1ccc(Nc2cc(Oc3cnc(C#N)cc3C)nc3c2ncn3C)nc1 [Compound 100] ; value = 2.96

// field: log10 IC50; key: Cc1cc(C#N)ncc1Oc1cc(Nc2cc(NCCC(C)(C)O)ncn2)c2ncn(C)c2n1 [Compound 33] ; value = 2.70

// field: log10 IC50; key: Cc1cc(C#N)ncc1Oc1cc(Nc2cc(NCCCO)ncn2)c2ncn(C)c2n1 [Compound 34] ; value = 3.05

// field: log10 IC50; key: COC1CC(Nc2cc(Nc3cc(Oc4cnc(C#N)cc4C)nc4c3ncn4C)ncn2)C1 (centres unmarked) [Compound 36] ; value = 2.62

// field: log10 IC50; key: Cc1cc(C#N)ncc1Oc1cc(Nc2ccc(C(F)(F)F)cn2)c2ncn(C)c2n1 [Compound 59] ; value = 3.58
